// values below are reported viability at 20 µM
# System: Human embryonic kidney (HEK293) cells / mouse neuroblastoma (N2a) cells
# Test description: Cell rescue assay: protection against thapsigargin (TG)-induced cell-death (ALAMARBLUE)
# Format: cell-based
# Assay setup: compound 20 μM, 2 hrs before thapsigargin (15 μM HEK293, 1 μM N2a), 24 hrs, viability as % RFU of control, read-out: Cell Survival %

{"Structure smiles": "Cc1ccc2cccc(NCc3ccc(C)s3)c2n1", "viability at 20 µM": "10 to 50%"}
{"Structure smiles": "Cc1ccc2cccc(NCc3ccc(C(F)(F)F)cc3)c2n1", "viability at 20 µM": "> 50%"}
{"Structure smiles": "Cc1ccc2cccc(NCc3ccc(Br)s3)c2n1", "viability at 20 µM": "> 50%"}
{"Structure smiles": "Cc1ccc2cccc(NCc3cc4ccccc4s3)c2n1", "viability at 20 µM": "10 to 50%"}
{"Structure smiles": "Cc1ccc2cccc(NCc3ccc(OC(C)C)cc3)c2n1", "viability at 20 µM": "> 50%"}
{"Structure smiles": "Cc1ccc2cccc(NCc3ccc(C)o3)c2n1", "viability at 20 µM": "< 10%"}

----------
# Tested on: Human embryonic kidney (HEK293) cells / mouse neuroblastoma (N2a) cells
# Test description: Cell rescue assay: protection against thapsigargin (TG)-induced cell-death (ALAMARBLUE)
# Assay type: cell-based
# Assay setup: compound 20 μM, 2 hrs before thapsigargin (15 μM HEK293, 1 μM N2a), 24 hrs, viability as % RFU of control, read-out: Cell Survival %
Observation type: viability at 20 µM

{"Molecule": "Cc1ccc2cccc(NCc3cc(Br)cs3)c2n1 [C2]", "Observation type": "viability at 20 µM", "Recorded result": "10 to 50%"}
{"Molecule": "Cc1ccc2cccc(NCc3ccc(Cl)cc3)c2n1 [C4]", "Observation type": "viability at 20 µM", "Recorded result": "> 50%"}
{"Molecule": "COc1c(C)cccc1CNc1cccc2ccc(C)nc12 [C5]", "Observation type": "viability at 20 µM", "Recorded result": "10 to 50%"}
{"Molecule": "Cc1ccc2cccc(NCc3ccc(C#N)cc3)c2n1 [C7]", "Observation type": "viability at 20 µM", "Recorded result": "< 10%"}

These measurements were taken from patent US20200039939A1.
